Value source: paper PMC12136788

Reported values of binding signal for individual entries
EXPERIMENTAL SYSTEM: T1, UNK ZnF1-3 (human, UniProt Q9C0B0 31-174)
T1 sequence: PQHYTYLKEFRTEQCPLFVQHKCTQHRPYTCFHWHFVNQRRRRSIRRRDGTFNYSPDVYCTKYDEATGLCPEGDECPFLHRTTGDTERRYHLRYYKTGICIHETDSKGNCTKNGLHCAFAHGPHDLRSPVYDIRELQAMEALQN
EXPERIMENT DESCRIPTION: nsRBNS (natural sequence RNA bind-n-seq); RBNS binding buffer (assumed for nsRBNS): 25 mM Tris pH 7.5, 150 mM KCl, 3 mM MgCl2, 0.01% Triton X-100, 500 ug/ml BSA, 20 U/ml SUPERase-In, 4 C; UNK is unkempt and MSI1 is Musashi-1; names of the RNAs are library labels; protein concentration not given here; high values mean tight binding
In all, about 24,000 sequences were measured (“enrichment r”: median about 0.99, highest 2% from about 3.7 on). The list comes from a sample in which the highest values are over-represented; it also holds close analogues and randomly drawn sequences.
MEASUREMENT NAME: binding signal (enrichment R)

BINDER	MEASUREMENT NAME	VALUE REPORTED
230825810_230827160_2020_CDS_ENSG00000135775_ENST00000366669|human|control|control (ssRNA) RNA: GGGAGUUCUACAGUCCGACGAUCGUUUAAUACAUCUGACACGGUUUCAUAGUACUUAUGAGUGCUUUCACUGAGAGUGCCUUCUAGCCACUGCUGAAUUAUUGCUUGUUUGAGCUUAUCCUUGUGUCCGCUCUGAAGCUGGAACAACAGAGGAUUGAGCAUCA	binding signal	0.468
chr2:4828950:4828951:+_ENSMUSG00000026662_ENSMUST00000115019|mus_hu|motif|central (ssRNA) RNA: GGGAGUUCUACAGUCCGACGAUCUAAAAUCUAGUUUUUCCCGAUAAAUUGUACUUUAGGCAAAACCCUCCCAACGCUUCGGAAAUAAUACUAAAAGGGGCAUCUGAUUAUACAAGAGCAAUUUAAAAAAUUAAAUAUUUAUUUCAACAGAGGAUUGAGCAUCA	binding signal	4.08
chr7:7679991:7679992:-_ENSG00000106399_ENST00000396682|hu_hu|hu_hu_hu_mus_False|18_48 (ssRNA) RNA: GGGAGUUCUACAGUCCGACGAUCUGGGAUGAAUCUUUUCCAGCUUCCCCACGAAGCACACGGGCCGGUCGAUAUACUGUGGUAACAUGCCGGCGUUGACGCGCGCUUUGGGGAGCUCCAUCAUGUCCUCCAUGAUUCUGCCGCCAACAGAGGAUUGAGCAUCA	binding signal	0.554
